tested on: ATP; test: switch fluorescence ratio, 500 uM ATP over buffer (Cy3 cluster intensity, sum of 5 cycles each) (fold (ratio)); higher = stronger signal-on switching upon ATP binding; sequences stand for … in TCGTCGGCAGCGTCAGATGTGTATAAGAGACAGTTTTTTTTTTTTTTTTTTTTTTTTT…TC; conditions: aptamer strand: ATP DNA aptamer (quencher-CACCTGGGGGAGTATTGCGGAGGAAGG + anchor), 100 nM annealed; ATP concentration: 500 uM;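 note: ATP exposure 15 min at 22 °C before imaging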
ASSAY ENDPOINT: switch fluorescence ratio

Reference set, count: 2
MONOMER SEQUENCE: CATGGGCCGT
switch fluorescence ratio: 1.02
--
MONOMER SEQUENCE: CACAAAAGCG
switch fluorescence ratio: 1.01

# input Looking for the measured switch fluorescence ratio of CGGCCGGGGT , can you help?
# output 1.04

# input Looking for the measured switch fluorescence ratio of CGCTCCGGAG , can you help?
# output 1.18

# input Looking for the measured switch fluorescence ratio of ATAACAGGTA , can you help?
# output 1.01

# input Looking for the measured switch fluorescence ratio of AGGCTTGGTG , can you help?
# output 0.988

# input Looking for the measured switch fluorescence ratio of GTAGTTTATG , can you help?
# output 0.996

# input Looking for the measured switch fluorescence ratio of ATAGTATAAG , can you help?
# output 1

# input Looking for the measured switch fluorescence ratio of TTGGGTCGTT , can you help?
# output 0.994

# input Looking for the measured switch fluorescence ratio of TCTTTAAGGT , can you help?
# output 1.04

---

Parameter switch fluorescence ratio: see the listing below.
tested on: ATP; assay: switch fluorescence ratio, 500 uM ATP over buffer (Cy3 cluster intensity, sum of 5 cycles each) (fold (ratio)); higher = stronger signal-on switching upon ATP binding; sequences stand for … in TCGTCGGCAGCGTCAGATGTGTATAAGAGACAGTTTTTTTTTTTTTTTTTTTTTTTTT…TC; conditions: aptamer strand: ATP DNA aptamer (quencher-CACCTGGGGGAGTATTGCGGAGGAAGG + anchor), 100 nM annealed; ATP concentration: 500 uM;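 note: ATP exposure 15 min at 22 °C before imaging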

# input Looking for the measured switch fluorescence ratio of CAGCGGAGGT , can you help?
# output 1.02

# input Looking for the measured switch fluorescence ratio of TGTTGTATTT , can you help?
# output 1.01

# input Looking for the measured switch fluorescence ratio of AGGAACTTTT , can you help?
# output 1.42

# input Looking for the measured switch fluorescence ratio of GGGTAAGAGT , can you help?
# output 1

# input Looking for the measured switch fluorescence ratio of AAGATTTTAC , can you help?
# output 1.01

---

test system: ATP; experiment: switch fluorescence ratio, 500 uM ATP over buffer (Cy3 cluster intensity, sum of 5 cycles each) (fold (ratio)); higher = stronger signal-on switching upon ATP binding; sequences stand for … in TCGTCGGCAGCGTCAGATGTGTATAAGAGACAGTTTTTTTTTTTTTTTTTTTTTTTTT…TC; conditions: aptamer strand: ATP DNA aptamer (quencher-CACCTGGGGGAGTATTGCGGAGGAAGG + anchor), 100 nM annealed; ATP concentration: 500 uM;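 note: ATP exposure 15 min at 22 °C before imaging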
ASSAY ENDPOINT: switch fluorescence ratio
No unit in the answer, only the number.

Reference set, count: 5
MONOMER SEQUENCE: GTGGGTTGGT
READING: 1.01
//
MONOMER SEQUENCE: ATGTTTTTAC
READING: 0.949
//
MONOMER SEQUENCE: CCATACGGGG
READING: 0.998
//
MONOMER SEQUENCE: AGTGGTGCCG
READING: 0.989
//
MONOMER SEQUENCE: GTTTTATGAT
READING: 0.967

# input Looking for the measured switch fluorescence ratio of GTATGGGAAA , can you help?
# output 1.04

# input Looking for the measured switch fluorescence ratio of TAGTAGGTAC , can you help?
# output 1.04

# input Looking for the measured switch fluorescence ratio of CAGAGAAAC , can you help?
# output 1.1

# input Looking for the measured switch fluorescence ratio of ATGATATTTG , can you help?
# output 1.01

# input Looking for the measured switch fluorescence ratio of AGGATGAAAT , can you help?
# output 0.992

# input Looking for the measured switch fluorescence ratio of TATGGCTCTA , can you help?
# output 0.973

# input Looking for the measured switch fluorescence ratio of TGGGGGAATA , can you help?
# output 0.999

# input Looking for the measured switch fluorescence ratio of ATAGCAGGCG , can you help?
# output 1.01

# input Looking for the measured switch fluorescence ratio of ACGGGCCGGG , can you help?
# output 1.02
